The origin of these recorded values is paper PMC8360061.

study_system: PfIspE (Plasmodium falciparum)
procedure_summary: PfIspE enzymatic assay (coupled to PK/LDH, NADH oxidation at 340 nm)
Type: biochemical
test_parameters: 10 mM stock in DMSO at RT, 16 days of incubation
property_measured: IC50 (µM)

> print(dat)
                                   compound  test.value
1  CCn1c(C)cc(-c2csc(Nc3ccccc3C(F)(F)F)n2)c1C [Compound 1]          11

----------
study_system: PfIspE (Plasmodium falciparum, UniProt Q8I470)
Sequence (Q8I470 entry or part of it): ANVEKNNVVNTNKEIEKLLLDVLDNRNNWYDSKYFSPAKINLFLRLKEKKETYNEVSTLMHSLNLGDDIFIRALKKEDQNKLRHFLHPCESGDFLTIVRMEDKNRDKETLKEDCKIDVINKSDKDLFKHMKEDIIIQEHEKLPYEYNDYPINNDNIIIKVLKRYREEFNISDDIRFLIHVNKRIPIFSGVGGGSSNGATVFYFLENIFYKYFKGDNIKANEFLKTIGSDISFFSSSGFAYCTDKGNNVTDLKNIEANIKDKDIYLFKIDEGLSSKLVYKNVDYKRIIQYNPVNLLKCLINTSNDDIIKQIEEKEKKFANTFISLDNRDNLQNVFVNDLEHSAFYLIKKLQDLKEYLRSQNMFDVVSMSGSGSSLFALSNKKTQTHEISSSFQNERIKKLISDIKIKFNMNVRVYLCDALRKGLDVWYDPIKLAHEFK
procedure_summary: PfIspE enzymatic assay (coupled to PK/LDH, NADH oxidation at 340 nm)
Format: biochemical
test_parameters: 10 mM stock in DMSO at RT, 7 days of incubation
property_measured: IC50 (µM)

> print(dat)
                    structure.smiles.string                              study.system  property.measured  test.value
1  CCn1c(C)cc(-c2csc(Nc3ccccc3C(F)(F)F)n2)c1C  PfIspE (Plasmodium falciparum, UniProt Q8I470)               IC50          24
